Reported values of IC50 for individual entries
# System: L5178Y
# ASSAY_NAME: Antiproliferative activity against mouse L5178Y cells after 72 hrs by MTT assay
# Assay type: functional
# MEASUREMENT_CONTEXT: read-out: ID50 (the source's name)

COMPOUND | TESTED_ON | RESULT_QUALIFIER | IC50 (µM)
CCCC(=O)O[C@@H](C=C(C)C)C[C@@H](C)[C@H]1CC[C@@]2(C)[C@@H]3[C@@H](OC)C=C4[C@@H](CC[C@H](O)C4(C)C)[C@]3(C)CC[C@]12C [KARAVOATE E] | L5178Y | = | 51
CO[C@H]1C=C2[C@@H](CC[C@H](O)C2(C)C)[C@]2(C)CC[C@]3(C)[C@@H]([C@H](C)C[C@@H](O)C=C(C)C)CC[C@@]3(C)[C@H]12 [KARAVELAGENIN C] | L5178Y | = | 6.3
COC(C)(C)/C=C/C[C@@H](C)[C@H]1CC[C@@]2(C)[C@@H]3[C@@H](O[C@H]4O[C@@H](CO)[C@H](O)[C@H](O)[C@@H]4O)C=C4[C@@H](CC[C@H](O)C4(C)C)[C@]3(C)CC[C@]12C [BALSAMINOSIDE A] | L5178Y | = | 8.3
CCC(=O)O[C@@H](C=C(C)C)C[C@@H](C)[C@H]1CC[C@@]2(C)[C@@H]3[C@@H](OC)C=C4[C@@H](CC[C@H](O)C4(C)C)[C@]3(C)CC[C@]12C [KARAVOATE C] | L5178Y | = | 41.4
CO[C@H]1C=C2[C@@H](CC[C@H](OC(C)=O)C2(C)C)[C@]2(C)CC[C@]3(C)[C@@H]([C@H](C)C[C@H](C=C(C)C)OC(C)=O)CC[C@@]3(C)[C@H]12 [KARAVOATE B] | L5178Y | = | 48.8
CCC(=O)O[C@H]1CC[C@@H]2C(=C[C@H](OC)[C@@H]3[C@@]2(C)CC[C@]2(C)[C@@H]([C@H](C)C[C@H](C=C(C)C)OC(=O)CC)CC[C@@]32C)C1(C)C [KARAVOATE D] | L5178Y | > | 133
CO[C@H]1C=C2[C@@H](CC[C@H](O)C2(C)C)[C@]2(C)CC[C@]3(C)[C@@H]([C@H](C)C[C@H](C=C(C)C)OC(C)=O)CC[C@@]3(C)[C@H]12 [KARAVOATE A] | L5178Y | = | 26
COC(C)(C)/C=C/C[C@@H](C)[C@H]1CC[C@@]2(C)[C@@H]3[C@@H](O)C=C4[C@@H](CC[C@H](O)[C@]4(C)CO)[C@]3(C)CC[C@]12C [BALSAMINAGENIN B] | L5178Y | = | 15.4
C[C@H](C/C=C/C(C)(C)O)[C@H]1CC[C@@]2(C)[C@@H]3[C@@H](O)C=C4[C@@H](CC[C@H](O)[C@]4(C)CO)[C@]3(C)CC[C@]12C [BALSAMINAGENIN A] | L5178Y | = | 19.5

====

# TESTED_ON: ATP-dependent translocase ABCB1 (Homo sapiens)
# ASSAY_NAME: Reversal of human MDR1-mediated multidrug resistance in mouse L5178Y cells expressing MDR1 assessed as side scatter count measured by cell size ratio at 20 uM after 10 mins by flow cytometry
# Assay type: cell-based

COMPOUND | Activity
C[C@H](C/C=C/C(C)(C)O)[C@H]1CC[C@@]2(C)[C@@H]3[C@@H](O)C=C4[C@@H](CC[C@H](O)[C@]4(C)CO)[C@]3(C)CC[C@]12C | 257.6
COC(C)(C)/C=C/C[C@@H](C)[C@H]1CC[C@@]2(C)[C@@H]3[C@@H](O)C=C4[C@@H](CC[C@H](O)[C@]4(C)CO)[C@]3(C)CC[C@]12C | 238.6
CCC(=O)O[C@@H](C=C(C)C)C[C@@H](C)[C@H]1CC[C@@]2(C)[C@@H]3[C@@H](OC)C=C4[C@@H](CC[C@H](O)C4(C)C)[C@]3(C)CC[C@]12C [KARAVOATE C] | 242.5
CO[C@H]1C=C2[C@@H](CC[C@H](OC(C)=O)C2(C)C)[C@]2(C)CC[C@]3(C)[C@@H]([C@H](C)C[C@H](C=C(C)C)OC(C)=O)CC[C@@]3(C)[C@H]12 [KARAVOATE B] | 249.3
CO[C@H]1C=C2[C@@H](CC[C@H](O)C2(C)C)[C@]2(C)CC[C@]3(C)[C@@H]([C@H](C)C[C@@H](O)C=C(C)C)CC[C@@]3(C)[C@H]12 | 206.8
COC(C)(C)/C=C/C[C@@H](C)[C@H]1CC[C@@]2(C)[C@@H]3[C@@H](O[C@H]4O[C@@H](CO)[C@H](O)[C@H](O)[C@@H]4O)C=C4[C@@H](CC[C@H](O)C4(C)C)[C@]3(C)CC[C@]12C [BALSAMINOSIDE A] | 249.7
CO[C@H]1C=C2[C@@H](CC[C@H](O)C2(C)C)[C@]2(C)CC[C@]3(C)[C@@H]([C@H](C)C[C@H](C=C(C)C)OC(C)=O)CC[C@@]3(C)[C@H]12 [KARAVOATE A] | 222.4
CCCC(=O)O[C@@H](C=C(C)C)C[C@@H](C)[C@H]1CC[C@@]2(C)[C@@H]3[C@@H](OC)C=C4[C@@H](CC[C@H](O)C4(C)C)[C@]3(C)CC[C@]12C [KARAVOATE E] | 236.3
CCC(=O)O[C@H]1CC[C@@H]2C(=C[C@H](OC)[C@@H]3[C@@]2(C)CC[C@]2(C)[C@@H]([C@H](C)C[C@H](C=C(C)C)OC(=O)CC)CC[C@@]32C)C1(C)C [KARAVOATE D] | 230.8

====

Below, each entry is listed with its recorded Activity.
# TESTED_ON: ATP-dependent translocase ABCB1 (Homo sapiens, UniProt P08183)
# Sequence (P08183 whole entry): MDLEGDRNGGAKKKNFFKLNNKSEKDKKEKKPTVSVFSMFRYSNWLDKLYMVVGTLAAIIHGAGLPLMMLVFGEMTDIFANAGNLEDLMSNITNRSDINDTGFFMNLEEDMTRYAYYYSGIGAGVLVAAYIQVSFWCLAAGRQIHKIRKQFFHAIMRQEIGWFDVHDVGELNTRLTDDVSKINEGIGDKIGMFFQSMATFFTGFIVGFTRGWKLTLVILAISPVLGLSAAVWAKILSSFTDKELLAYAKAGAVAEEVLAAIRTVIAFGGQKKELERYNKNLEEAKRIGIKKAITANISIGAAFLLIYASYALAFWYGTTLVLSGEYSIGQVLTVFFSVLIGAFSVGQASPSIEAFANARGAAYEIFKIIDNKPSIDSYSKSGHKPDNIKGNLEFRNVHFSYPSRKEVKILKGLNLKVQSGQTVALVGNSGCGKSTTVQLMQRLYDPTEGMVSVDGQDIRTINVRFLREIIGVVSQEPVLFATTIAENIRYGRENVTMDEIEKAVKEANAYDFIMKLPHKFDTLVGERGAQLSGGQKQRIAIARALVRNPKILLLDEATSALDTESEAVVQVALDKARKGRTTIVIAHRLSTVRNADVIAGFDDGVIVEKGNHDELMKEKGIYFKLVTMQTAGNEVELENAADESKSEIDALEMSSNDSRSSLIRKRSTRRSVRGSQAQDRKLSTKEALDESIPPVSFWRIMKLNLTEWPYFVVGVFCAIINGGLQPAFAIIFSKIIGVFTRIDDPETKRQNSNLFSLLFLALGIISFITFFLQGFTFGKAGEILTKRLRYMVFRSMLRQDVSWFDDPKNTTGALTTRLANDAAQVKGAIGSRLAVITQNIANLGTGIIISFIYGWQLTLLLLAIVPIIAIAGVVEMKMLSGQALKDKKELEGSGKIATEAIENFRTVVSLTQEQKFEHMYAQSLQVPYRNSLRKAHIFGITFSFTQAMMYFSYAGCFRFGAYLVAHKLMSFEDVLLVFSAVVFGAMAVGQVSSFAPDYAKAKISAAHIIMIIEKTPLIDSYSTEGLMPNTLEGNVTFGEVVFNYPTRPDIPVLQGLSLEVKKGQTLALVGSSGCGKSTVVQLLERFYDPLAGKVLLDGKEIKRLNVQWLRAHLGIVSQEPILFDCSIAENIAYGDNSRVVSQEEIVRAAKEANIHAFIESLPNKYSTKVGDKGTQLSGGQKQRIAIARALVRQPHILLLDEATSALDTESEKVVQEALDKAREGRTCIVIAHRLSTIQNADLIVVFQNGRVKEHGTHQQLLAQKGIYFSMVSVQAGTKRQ
# ASSAY_NAME: Reversal of human MDR1-mediated multidrug resistance in mouse L5178Y cells expressing MDR1 assessed as mean fluorescence intensity of rhodamine-123 uptake at 2 uM after 10 mins by flow cytometry
# Type: cell-based
MEASURE_NAME: Activity

COMPOUND | TESTED_ON | MEASURE_NAME | REPORTED_VALUE
CCC(=O)O[C@@H](C=C(C)C)C[C@@H](C)[C@H]1CC[C@@]2(C)[C@@H]3[C@@H](OC)C=C4[C@@H](CC[C@H](O)C4(C)C)[C@]3(C)CC[C@]12C [KARAVOATE C] | ATP-dependent translocase ABCB1 (Homo sapiens, UniProt P08183) | Activity | 30.3
CO[C@H]1C=C2[C@@H](CC[C@H](O)C2(C)C)[C@]2(C)CC[C@]3(C)[C@@H]([C@H](C)C[C@H](C=C(C)C)OC(C)=O)CC[C@@]3(C)[C@H]12 [KARAVOATE A] | ATP-dependent translocase ABCB1 (Homo sapiens, UniProt P08183) | Activity | 671.2
CO[C@H]1C=C2[C@@H](CC[C@H](OC(C)=O)C2(C)C)[C@]2(C)CC[C@]3(C)[C@@H]([C@H](C)C[C@H](C=C(C)C)OC(C)=O)CC[C@@]3(C)[C@H]12 [KARAVOATE B] | ATP-dependent translocase ABCB1 (Homo sapiens, UniProt P08183) | Activity | 102.1
CCC(=O)O[C@H]1CC[C@@H]2C(=C[C@H](OC)[C@@H]3[C@@]2(C)CC[C@]2(C)[C@@H]([C@H](C)C[C@H](C=C(C)C)OC(=O)CC)CC[C@@]32C)C1(C)C [KARAVOATE D] | ATP-dependent translocase ABCB1 (Homo sapiens, UniProt P08183) | Activity | 16.2
COC(C)(C)/C=C/C[C@@H](C)[C@H]1CC[C@@]2(C)[C@@H]3[C@@H](O)C=C4[C@@H](CC[C@H](O)[C@]4(C)CO)[C@]3(C)CC[C@]12C | ATP-dependent translocase ABCB1 (Homo sapiens, UniProt P08183) | Activity | 78.4
C[C@H](C/C=C/C(C)(C)O)[C@H]1CC[C@@]2(C)[C@@H]3[C@@H](O)C=C4[C@@H](CC[C@H](O)[C@]4(C)CO)[C@]3(C)CC[C@]12C | ATP-dependent translocase ABCB1 (Homo sapiens, UniProt P08183) | Activity | 13.95
CCCC(=O)O[C@@H](C=C(C)C)C[C@@H](C)[C@H]1CC[C@@]2(C)[C@@H]3[C@@H](OC)C=C4[C@@H](CC[C@H](O)C4(C)C)[C@]3(C)CC[C@]12C [KARAVOATE E] | ATP-dependent translocase ABCB1 (Homo sapiens, UniProt P08183) | Activity | 18
CO[C@H]1C=C2[C@@H](CC[C@H](O)C2(C)C)[C@]2(C)CC[C@]3(C)[C@@H]([C@H](C)C[C@@H](O)C=C(C)C)CC[C@@]3(C)[C@H]12 | ATP-dependent translocase ABCB1 (Homo sapiens, UniProt P08183) | Activity | 365.7
COC(C)(C)/C=C/C[C@@H](C)[C@H]1CC[C@@]2(C)[C@@H]3[C@@H](O[C@H]4O[C@@H](CO)[C@H](O)[C@H](O)[C@@H]4O)C=C4[C@@H](CC[C@H](O)C4(C)C)[C@]3(C)CC[C@]12C [BALSAMINOSIDE A] | ATP-dependent translocase ABCB1 (Homo sapiens, UniProt P08183) | Activity | 19
